Reference source: patent US6875760B2

measurementTarget: human glucagon receptor (Homo sapiens)
Construct: expressed in transfected cells; host or cells: BHK (baby hamster kidney) cells
Sequence (P47871 26-477): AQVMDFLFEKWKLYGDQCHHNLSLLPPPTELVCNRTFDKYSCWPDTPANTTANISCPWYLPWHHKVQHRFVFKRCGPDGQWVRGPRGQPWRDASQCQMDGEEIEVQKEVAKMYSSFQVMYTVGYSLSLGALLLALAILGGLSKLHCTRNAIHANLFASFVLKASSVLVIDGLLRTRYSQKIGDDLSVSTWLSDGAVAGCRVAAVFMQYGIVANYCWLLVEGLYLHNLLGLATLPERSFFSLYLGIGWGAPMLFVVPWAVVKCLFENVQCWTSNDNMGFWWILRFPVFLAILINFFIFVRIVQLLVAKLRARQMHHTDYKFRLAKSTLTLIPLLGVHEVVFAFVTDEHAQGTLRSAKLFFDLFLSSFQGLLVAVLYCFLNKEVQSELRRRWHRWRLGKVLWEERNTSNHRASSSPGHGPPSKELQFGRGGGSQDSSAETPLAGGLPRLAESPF
methodSummary: Glucagon Binding Assay (III)
measurementContext: Glu Bd Assay (III) IC50 (nM), BHK cell membranes, WGA SPA beads, 125I-glucagon
# IC50 listing for each entry below

[
  {
    "compound": "CC(C)(C)[C@H]1CC[C@H](N(Cc2ccc(C(=O)NCCC(=O)O)cc2)C(=O)Nc2cc(C(F)(F)F)cc(C(F)(F)F)c2)CC1 [Example 237]",
    "IC50 [nM]": 56
  },
  {
    "compound": "CC(C)(C)[C@H]1CC[C@H](N(Cc2ccc(C(=O)NCCC(=O)O)cc2)C(=O)Nc2ccc(C#N)cc2OC(F)(F)F)CC1 [Example 247]",
    "IC50 [nM]": 215
  },
  {
    "compound": "CC(C)(C)[C@H]1CC[C@H](N(Cc2ccc(C(=O)NCC(=O)NO)cc2)C(=O)Nc2ccc(OC(F)(F)F)cc2)CC1 [Example 377]",
    "IC50 [nM]": 2960
  }
]
